Catalogue of Kd values
B1: NELF-E aptamer (parent)
chain: CCCAACGACUGCCGAGCGAGAUUACGCUUGAGCGCCCCACUGAGGAUGCCCACGGGCGAUUGGGGCACGG

Variants of: B1
Assay: HiTS-RAP
Settings: with NELF-E (Drosophila)

Known results for variants:
{"columns": ["chain", "reported_measurement"],
 "data": [
  ["CCCAACGACUGCCGAUCGAGAUUACACUUGAGCGCCCCACUGAGGAUGCCCACGGGCGAUUGGGGCACGG", "4.92 nM"],
  ["CCCUACGACUGCCGAGCGAGAUUACGCUUGAGCGCCCUACUGAGGAUGCCCACGGGCGAUUGGGGCACGG", "6.95 nM"],
  ["CCCAACGACUGCCGAGCGAGAUUACGCUGGAGCGCCCCACUGAGGAGGCCCACGGGCGAUUGGGGCACGG", "6.21 nM"]
]}

# input for lookup
Entry `CCCAACGUCUGCCGAGCGAGAUUACGCUUGUGCGCCCCACUGAGGAUGCCCACGGGCGAUUGGGGCACGG` , Kd reported as 7.11 nM

The values you see were collected from the RNAGym collection of RNA variant scans (doi:10.1038/nmeth.2970).
